Values from patent US20100233154A1

# Assayed target: T1, murine heparanase (Mus musculus, UniProt Q6YGZ1)
# T1 construct: made in house; host or cells: Hek293 cells (conditioned medium), inferred for the ELISA
# T1 sequence (Q6YGZ1 28-535): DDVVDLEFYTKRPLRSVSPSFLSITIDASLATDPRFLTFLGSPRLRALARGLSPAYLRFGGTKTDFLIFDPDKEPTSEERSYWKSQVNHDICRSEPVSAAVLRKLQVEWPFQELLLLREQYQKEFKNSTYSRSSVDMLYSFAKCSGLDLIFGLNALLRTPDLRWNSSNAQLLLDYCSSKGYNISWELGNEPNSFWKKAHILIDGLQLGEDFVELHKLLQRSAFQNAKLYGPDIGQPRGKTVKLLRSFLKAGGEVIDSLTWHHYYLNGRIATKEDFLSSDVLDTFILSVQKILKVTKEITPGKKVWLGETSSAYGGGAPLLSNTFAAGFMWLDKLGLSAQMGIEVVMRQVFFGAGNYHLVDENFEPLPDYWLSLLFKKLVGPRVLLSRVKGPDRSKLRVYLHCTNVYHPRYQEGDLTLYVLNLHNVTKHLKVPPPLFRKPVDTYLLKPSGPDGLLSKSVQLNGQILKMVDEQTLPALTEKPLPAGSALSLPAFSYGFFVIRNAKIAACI
# Run description: Cross species capture ELISA, murine heparanase
# Format: binding
# Applied conditions: min 0.06, max 0.9 OD units
Measured attribute: Binding to heparanase Mouse (OD units)
# output: bare number, implied unit OD units

**Query** Param item = 14H12.3: human anti-heparanase monoclonal antibody, G2λ; VH SEQ ID NO 26, VL SEQ ID NO 28 (antibody, listed as Homo Sapiens, V domains shown) VH: QVQLVESGGGVVQPGRSLRLSCAASGFTFSSYGMHWVRQAPGKGLEWVAVIWYDGSNKDYADSVKGRFTISRDNSKNTLYLQMNSLRAEDTAVYYCAREGSTSWTDYYGMDVWGQGTTVTVSS VL: SYELTQPPSVSVSPGQTARITCSGDALPKRYAYWYQQKSGQALVLVIYEDSKRPSGIPERFSGSSSGTMATLTISGAQVEDEADYYCYSIDSSGNHGVFGGGTKLTVL ; retrieve measured Binding to heparanase Mouse.
**Result** 0.14
